Tested on: BL2-NFkB-Luc
test_name: CD40L-induced NF-kB luciferase activity, plate-corrected, relative to DMSO (0) and IKK inhibitor VII (-100) controls (% normalized activity); higher = more NF-kB reporter activity (less inhibition)
conditions_used: 9.4 µM; stimulus: tCD40L 64 ng/ml; 4.5 h
In all, about 1,900 compounds were measured (“CD40L-induced NF-kB luciferase activity, plate-corrected, relative to DMSO (0) and IKK inhibitor VII (-100) controls”: median about 0.032, lowest 2% from about -26 on). The sample holds the lowest values, similar compounds and a random draw of the others, so the mix is not that of the screen.
outcome_measure: CD40L-induced NF-kB luciferase activity
Lab note: write the figure by itself, no unit.

Field request: CD40L-induced NF-kB luciferase activity | item: CC(=O)OCC(=O)[C@@]1(O)[C@H](C)C[C@H]2[C@@H]3CCC4=CC(=O)C=C[C@]4(C)[C@@]3(F)[C@@H](O)C[C@@]21C
-27.6

Field request: CD40L-induced NF-kB luciferase activity | item: CC(=O)[C@@]1(O)CC[C@H]2[C@@H]3C[C@H](C)C4=CC(=O)CC[C@]4(C)[C@H]3CC[C@@]21C
-15.7

Field request: CD40L-induced NF-kB luciferase activity | item: CC(=O)OCC(=O)C1=CCC2C3CCC4=CC(=O)C=CC4(C)C3(F)C(OC(C)=O)CC12C (centres undefined)
-4.87

Field request: CD40L-induced NF-kB luciferase activity | item: O=S(=O)(NCCCCCNS(=O)(=O)c1ccccc1)c1ccccc1
-7.09

---

Test system: BL2-NFkB-Luc
test_name: CD40L-induced NF-kB luciferase activity, plate-corrected, relative to DMSO (0) and IKK inhibitor VII (-100) controls (% normalized activity); higher = more NF-kB reporter activity (less inhibition)
conditions_used: 9.4 µM; stimulus: tCD40L 64 ng/ml; 4.5 h
In all, about 1,900 compounds were measured (“CD40L-induced NF-kB luciferase activity, plate-corrected, relative to DMSO (0) and IKK inhibitor VII (-100) controls”: median about 0.032, lowest 2% from about -26 on). The entries come from a sample that favours the lowest values as a whole.
CD40L-induced NF-kB luciferase activity vs -2: at or above is Criterion met, below is Criterion not met.

In plain terms: is recorded CD40L-induced NF-kB luciferase activity at least -2 for COc1ccc(C(=O)Nc2cccc3cccnc23)cc1OC ?
Criterion met

In plain terms: is recorded CD40L-induced NF-kB luciferase activity at least -2 for COc1ccc(C2N3CC4(C)CN2CC(C)(C3)C4)cc1OC (stereo unspecified) ?
Criterion met

In plain terms: is recorded CD40L-induced NF-kB luciferase activity at least -2 for Nc1cnn(C2OC(CO)C(O)C2O)c(=O)n1 (stereo unspecified) ?
Criterion met

In plain terms: is recorded CD40L-induced NF-kB luciferase activity at least -2 for O=C(c1ccc([N+](=O)[O-])cc1)N1CCSC1c1ccccc1Cl (stereo unspecified) ?
Criterion met

In plain terms: is recorded CD40L-induced NF-kB luciferase activity at least -2 for COc1ccc2oc(=O)c(-c3nc(C)cs3)cc2c1 ?
Criterion met

In plain terms: is recorded CD40L-induced NF-kB luciferase activity at least -2 for O=c1ccn([C@@H]2O[C@H](CO)[C@@H](O)[C@H]2O)c(=O)[nH]1 ?
Criterion not met
